B1: CPEB3 Ribozyme (parent)
chain: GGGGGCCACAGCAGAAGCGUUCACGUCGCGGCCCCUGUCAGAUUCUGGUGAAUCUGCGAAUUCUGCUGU

- Variants of: B1
- assay_procedure: self-cleavage, relative activity (ratio to wild type); higher = more cleavage; co-transcriptional
reported_endpoint: self-cleavage

Here's what some known entries look like.
C7U U67A; 0.985
G58A U61A; 0.827
U20G G31A; 0.155
C34A G56C; 0.438

For every listed record, write down its self-cleavage.
1. C54U U61A
2. A13G U21G
3. G19A A52C
4. U21C U38A
5. G17U U20C
6. G56U U61A

Out:
1: 0.933; 2: 0.355; 3: 0.183; 4: 0.171; 5: 0.107; 6: 0.752
